# Target under test: D(2) dopamine receptor (Homo sapiens, UniProt P14416)
# Sequence (P14416 whole entry): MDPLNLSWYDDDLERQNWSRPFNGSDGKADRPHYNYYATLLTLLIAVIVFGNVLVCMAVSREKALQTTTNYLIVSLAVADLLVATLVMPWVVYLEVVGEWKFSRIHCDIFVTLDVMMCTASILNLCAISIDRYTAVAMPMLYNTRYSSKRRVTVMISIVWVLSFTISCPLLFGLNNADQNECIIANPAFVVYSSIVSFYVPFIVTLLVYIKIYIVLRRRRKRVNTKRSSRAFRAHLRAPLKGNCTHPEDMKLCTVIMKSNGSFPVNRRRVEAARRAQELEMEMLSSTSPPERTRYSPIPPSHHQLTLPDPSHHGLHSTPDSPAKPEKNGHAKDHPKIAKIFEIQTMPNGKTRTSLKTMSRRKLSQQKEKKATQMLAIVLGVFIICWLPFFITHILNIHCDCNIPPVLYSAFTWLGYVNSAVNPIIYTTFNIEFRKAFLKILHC
# Assay info: Dissociation constant of compound on one-site model Dopamine receptor D2L
Reported endpoint: pKi
Please keep in mind that pKi is minus log10 of the molar concentration; only the number is needed.

Ask: Which pKi reading was recorded for the compound C#CC1=CCC(N(CCC)CCC)CC1 (configuration not stated) ?
Reply: 5.55

---

# Target under test: D(2) dopamine receptor (Homo sapiens, UniProt P14416)
# Assay info: Dissociation constant of compound on one-site model Dopamine receptor D2S
Reported endpoint: pKi
# log scale: pKi equals minus log10 of the concentration in mol/L

Ask: Data request, read-out pKi, for C#CC1=CCC(N(CCC)CCC)CC1 (configuration not stated)
Reply: 5.54

---

# Target under test: D(2) dopamine receptor (Bos taurus, UniProt P20288)
# Sequence (P20288 whole entry): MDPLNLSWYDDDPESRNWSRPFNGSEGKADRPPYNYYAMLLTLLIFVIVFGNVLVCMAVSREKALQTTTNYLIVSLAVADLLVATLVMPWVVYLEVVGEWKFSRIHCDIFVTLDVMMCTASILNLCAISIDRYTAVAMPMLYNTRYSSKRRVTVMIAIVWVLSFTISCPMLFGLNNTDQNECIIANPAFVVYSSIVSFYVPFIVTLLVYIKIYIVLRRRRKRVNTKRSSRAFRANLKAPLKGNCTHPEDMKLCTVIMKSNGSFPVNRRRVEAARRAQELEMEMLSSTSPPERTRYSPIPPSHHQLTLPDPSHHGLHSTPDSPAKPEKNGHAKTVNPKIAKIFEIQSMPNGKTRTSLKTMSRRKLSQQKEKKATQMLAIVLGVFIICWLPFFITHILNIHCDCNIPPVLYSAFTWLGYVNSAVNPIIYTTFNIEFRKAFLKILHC
# Assay info: Dissociation constant of compound on one-site model Bovine dopamine receptor D2. Tested for ability to displace the radioligand [3H]spiperone at the binding site.
Reported endpoint: pKi
pKi here: minus log base 10 of the concentration, concentration in moles per litre.

Ask: Recorded pKi of CCCN(CCC)C1CC=C(C#C[Si](C)(C)C)CC1 (stereo unspecified) , please.
Reply: 5.80

---

# Target under test: D(3) dopamine receptor (Homo sapiens, UniProt P35462)
# Sequence (P35462 whole entry): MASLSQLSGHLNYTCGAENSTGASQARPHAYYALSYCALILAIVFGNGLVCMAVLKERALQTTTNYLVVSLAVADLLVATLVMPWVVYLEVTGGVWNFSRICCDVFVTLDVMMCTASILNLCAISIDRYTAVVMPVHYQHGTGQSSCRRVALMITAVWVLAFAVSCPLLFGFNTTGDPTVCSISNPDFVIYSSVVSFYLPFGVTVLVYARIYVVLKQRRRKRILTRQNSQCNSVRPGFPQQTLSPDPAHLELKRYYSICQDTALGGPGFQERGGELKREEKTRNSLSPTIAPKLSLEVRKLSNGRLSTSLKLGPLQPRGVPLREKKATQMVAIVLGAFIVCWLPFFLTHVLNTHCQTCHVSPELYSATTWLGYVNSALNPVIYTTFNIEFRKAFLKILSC
# Assay info: Dissociation constant of compound on one-site model Human Dopamine receptor D3
Reported endpoint: pKi
pKi field: float, defined as -log10 of concentration (mol/L).

Ask: What does the record list as pKi for C#CC1=CCC(N(CCC)CCC)CC1 (stereo unspecified) ?
Reply: 6.46

---

# Target under test: D(2) dopamine receptor (Bos taurus, UniProt P20288)
# Assay info: Binding Affinity was determined for decoupling of the ternary complex of Compound to Bovine dopamine receptor D2. Tested for ability to displace the radioligand [3H]spiperone at the binding site.
Reported endpoint: pKi
Scale: negative log10 of molar concentration, which is what pKi denotes.

Ask: Reported pKi for CCCN(CCC)C1CC=C(C#C[Si](C)(C)C)CC1 (stereo unspecified) : what is it?
Reply: 4.92

---

# Target under test: D(4) dopamine receptor (Homo sapiens)
# Sequence (P21917 whole entry): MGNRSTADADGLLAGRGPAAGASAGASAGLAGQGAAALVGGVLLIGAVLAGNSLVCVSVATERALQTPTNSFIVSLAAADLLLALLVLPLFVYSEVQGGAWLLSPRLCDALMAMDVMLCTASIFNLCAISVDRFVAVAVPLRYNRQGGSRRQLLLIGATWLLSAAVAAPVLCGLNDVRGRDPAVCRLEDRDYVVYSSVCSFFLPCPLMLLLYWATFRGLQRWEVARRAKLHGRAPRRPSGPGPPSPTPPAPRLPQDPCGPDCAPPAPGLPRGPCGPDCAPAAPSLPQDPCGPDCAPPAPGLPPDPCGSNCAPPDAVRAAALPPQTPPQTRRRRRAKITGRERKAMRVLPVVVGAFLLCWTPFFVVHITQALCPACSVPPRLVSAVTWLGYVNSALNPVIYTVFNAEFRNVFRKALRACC
# Assay info: Dissociation constant of compound on one-site model Dopamine receptor D4.4
Reported endpoint: pKi
Formally, pKi is defined as -log10 of the concentration c, with c in mol/L.

CCCN(CCC)C1CC=C(C#C[Si](C)(C)C)CC1 (configuration not stated)
6.19

Now for another entry.
Ask: Form entry - test system: D(4) dopamine receptor (Homo sapiens); read-out: pKi; compound: C#CC1=CCC(N(CCC)CCC)CC1 (configuration not stated)
Reply: 6.77

---

# Target under test: UniProt P20288
# Assay info: Binding Affinity was tested on high Affinity Site of Bovine Dopamine D2 Receptor. Tested for ability to displace the radioligand [3H]-Spiperone
Reported endpoint: pKi
Please express pKi as -log10 of the molar concentration.

Ask: Request the reported pKi associated with CCCN(CCC)C1CC=C(C#C[Si](C)(C)C)CC1 (stereo unspecified)
Reply: 6.82

---

# Target under test: D(1A) dopamine receptor (Bos taurus, UniProt Q95136)
# Sequence (Q95136 whole entry): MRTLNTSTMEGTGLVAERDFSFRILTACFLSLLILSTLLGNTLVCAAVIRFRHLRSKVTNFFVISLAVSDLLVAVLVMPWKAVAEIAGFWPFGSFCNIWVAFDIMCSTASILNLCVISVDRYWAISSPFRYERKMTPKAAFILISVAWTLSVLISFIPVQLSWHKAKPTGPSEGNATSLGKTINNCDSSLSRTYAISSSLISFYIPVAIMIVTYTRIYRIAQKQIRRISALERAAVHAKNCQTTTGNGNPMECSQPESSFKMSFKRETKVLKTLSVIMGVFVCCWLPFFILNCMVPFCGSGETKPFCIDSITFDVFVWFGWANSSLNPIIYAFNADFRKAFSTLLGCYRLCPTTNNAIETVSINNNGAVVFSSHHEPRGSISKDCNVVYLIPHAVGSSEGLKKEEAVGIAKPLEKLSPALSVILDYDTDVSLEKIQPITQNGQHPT
# Assay info: Binding Affinity was tested on High Affinity Site of Bovine dopamine receptor D1. Tested for ability to displace the radioligand [3H]-SCH- 23390
Reported endpoint: Ki

Use the examples below as a reference point.
CCCN(CCC)C1CCC(=C(C#Cc2ccccc2)C#Cc2ccccc2)CC1 (stereo not given)
2.2 µM
CCCN(CCC)C1CC=C(C#N)CC1 (stereo not given)
> 20 µM
CCCN(CCC)C1CCC(=C(C#N)C#N)CC1 (stereo not given)
> 20 µM
CCCN(CCC)C1CC=C(C#Cc2ccccc2)CC1 (stereo not given)
> 20 µM

Okay, now this compound:
Ask: Please report the recorded Ki for CCCN(CCC)C1CC=C(C#C[Si](C)(C)C)CC1 (stereo not given) .
Reply: > 20 µM
